# Target desc: cyno HER2 on cells (cynomolgus monkey, UniProt A0A2K5WUT7 1-1225)
# Test protocol: kinetic affinity (kon/koff); Pro51 format
Label scheme for Kd: low: < 7 nM; intermediate: ≥ 7 nM and < 20 nM; high: ≥ 20 nM

>  <Binder>
1091 (Pro1039) (protein) QVQLQESGGGLVQPGGSLRLSCAASGFTFDDYAMSWVRQAPGKGLEWVSSINWSGTHTDYADSVKGRFTISRDNAKNTLYLQMNSLKSEDSAVYYCVKGWRLTGGYYDSVQGQGTQVTVSS

>  <Label>
intermediate

$$$$
>  <Binder>
h1159 (Pro1062) (antibody, V domains shown) VH: QVQLLESGGGLVQPGGSLRLSCATSGRTFSSLAMGWFRQAPGKERELVAGISWSGSTTYYADSVKGRFAISRDNSKNTLYLQMNSLRAEDTAVYYCAARTSSIATIGREYDYWGQGTLVTVSS

>  <Label>
high

$$$$
>  <Binder>
Pro1044 VIB1156 (bispecific antibody, V domains shown) VH: QVQLQESGGGLVQAGGSLKVSCAASRNIGSNYAVGWFRQAPGKEREPVAALRWTGSIIGYDDSLRGRFTISKDDAKNTVYLQMNSLKPEDTGVYYCAARILDRSSYDYWGQGTQVTVSS

>  <Label>
intermediate

$$$$
>  <Binder>
h1139 (Pro1060) (protein) QVQLVESGGGVVRPGGSLRLSCAASGFTFDDYAMSWIRQAPGKEMEWVSGINWSGTHTRYADSVKGRFTISRDNAKNSLYLQMNSLRAEDTALYYCARGFAADSRSTRGQGTLVTVSS

>  <Label>
intermediate

$$$$
>  <Binder>
Pro1036 VIB1055 (bispecific antibody, V domains shown) VH: QVQLQESGGGLVQPGGSLRLTCEVSGRAISSYAISWFRQAPGEEREFVAAINWSGTHTNYADSVKGRFTISRDNVKNTVYLQMNSLKPEDTATYFCSRGWSVFDPDYRGQGTQVTVSS

>  <Label>
high

$$$$
>  <Binder>
Pro1038 VIB1059 (bispecific antibody, V domains shown) VH: QVQLQESGGGLVQPGGSLRLTCAASGRAISSYAISWFRQAPGEEREFVAAINWSGTHTDYADSVKGRFTISRDNAKNTVYLQMNSLKPEDTAVYFCSRGWSVFDPDYRGQGTQVTVSS

>  <Label>
high

$$$$
>  <Binder>
1121 (Pro1042) (protein) QVQLQESGGGLVQAGGSLRLSCAASGFIFSDYAMTWVRQAPGKGLEWVSSINWSGTHTNYADSVKGRFTISRDNAKKTLYLQMNSLKSEDTAVYYCARGWMVVPDSTRGQGTQVTVSS

>  <Label>
low

$$$$
>  <Binder>
1160 (Pro1046) (antibody, V domains shown) VH: QVQLQESGGGLVQAGGSLRLSCAASGRTFSNERLGWFRQAPGKERELVAAIRWSGVIIGYADSVRGRFTISRDNAKSTVYLQMNSLRPEDTAVYFCAADRGVYGTWDYWGQGTQVTVSS

>  <Label>
intermediate

$$$$
>  <Binder>
Pro1047 VIB1162 (bispecific antibody, V domains shown) VH: QVQLQESGGGLVQAGGSLRLSCAASGRPFSGNAMGWFRQAPGKEREFVAAISWSGDSTYYADSVKGRFTISRDNDENTAYLQMNSLKPEDTAVYYCAATRSFYSRTYYTRPSDYNYWGPGTQVTVSS

>  <Label>
high

$$$$
>  <Binder>
1058 (Pro1037) (protein) QVQLQESGGGLVQPGGSLRLTCAASGRAISSYAISWFRQAPGEEREFVAAINWSGTHTNYADSVKGRFTISRDNVKNTVYLQMNSLKPEDTATYFCSRGWSVFDPDYRGQGTQVTVSS

>  <Label>
intermediate

$$$$
>  <Binder>
Pro1045 VIB1159 (bispecific antibody, V domains shown) VH: QVQLQESGGGLVQAGGSLRLSCATSGRTFSSLAMGWFRQAPGKERELVAGISWSGSTTYYADSVKGRFAISRDNAKNTVYLQMNSLKPEDTAVYYCAARTSSIATIGREYDYWGQGTQVTVSS

>  <Label>
intermediate

$$$$
>  <Binder>
1097 (Pro1041) (protein) QVQLQESGGGLVQPGGSLRLSCAASGFIFDDYAMTWVRQAPGKGLEWVSSINWSGTHTDYADSVKGRFTISRDNAKNTLYLQMNSLKSEDSAVYYCVKGWRHTDNYYAGVQGQGTQVTVSS

>  <Label>
low

$$$$
>  <Binder>
humanized aHER2 sdAb h1162 (VHH) VHH: QVQLLESGGGLVQPGGSLRLSCAASGRPFSGNAMGWFRQAPGKEREFVAAISWSGDSTYYADSVKGRFTISRDNSKNTLYLQMNSLRAEDTAVYYCAATRSFYSRTYYTRPSDYNYWGPGTLVTVSS

>  <Label>
high

$$$$
>  <Binder>
1092 (Pro1040) (protein) QVQLQESGGGLVQAGASLRLSCAASGFTFDDYALSWVRQAPGKGLEWVSSINWSGTHTDYADSVKGRFTISRDNAKNTLYLQMNSLKSEDSAVYYCVKGWRLTGGYYDSVQGQGTQVTVSS

>  <Label>
low

$$$$
>  <Binder>
Pro1043 VIB1139 (bispecific antibody, V domains shown) VH: QVQLQESGGGLVQPGGSLRLSCAASGFTFDDYAMSWIRQAPGKEMEWVSGINWSGTHTRYADSVKGRFTISRDNAKNTLDLQMNSLISEDTAVYYCARGFAADSRSTRGQGTQVTVSS

>  <Label>
low

$$$$
